- EXPERIMENT: chemical genetic growth profiling, strain panel (AID 1159580);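 further: tested at 20 µM; growth read once vehicle control cultures reached saturation at 30 °C; 1 = growth at the plate median or of vehicle wells; lower values mean less growth of the strain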
- RUN_CONDITIONS: S. cerevisiae deletion strains, growth OD, locus YDR334W, strain swr1, stronger effect = lower value
Hit rate of the full screen: of about 5,500 compounds, about 2,000 (36%) were called active. Inconclusive results (about 18%) are left out. Some of the results follow.

COMPOUND | normalized growth
CCCCC1=NC2(CCCC2)C(=O)N1Cc1ccc(-c2ccccc2-c2nn[nH]n2)cc1 | 1.02
O=C(O)c1ccccc1Nc1ccccc1 | 0.926
CCOP(=S)(OCC)SCn1c(=O)oc2cc(Cl)ccc21 | 0.965
O=[N+]([O-])c1cc(O)c(O)c([N+](=O)[O-])c1 | 1.01
O=C(O)c1ccccc1Nc1cccc(C(F)(F)F)c1 | 0.788
Nc1ccc([As](=O)(O)O)cc1 | 1.01
O[N+]1=CC=CCC1=S.On1ccccc1=S.[Zn] | 0.0636
Nc1ncnc2c1ncn2[C@@H]1O[C@H](CO)[C@@H](O)[C@H]1O | 0.986
COc1cc(C(=O)NCc2ccc(OCCN(C)C)cc2)cc(OC)c1OC | 0.99
CN(C)CCOc1ccc(/C(=C(/CCCl)c2ccccc2)c2ccccc2)cc1 | 0.0691
COc1ccc(C(Cl)=C(c2ccc(OC)cc2)c2ccc(OC)cc2)cc1 | 1.04
CN(C)CCOC(C)(c1ccccc1)c1ccccn1 (stereo not drawn) | 1.01
COC(C)(C)CCC[C@H](C)C/C=C/C(C)=C/C(=O)OC(C)C | 1.02
O=C(O[C@@H]1Cc2c(O)cc(O)cc2O[C@@H]1c1cc(O)c(O)c(O)c1-c1c([C@H]2Oc3cc(O)cc(O)c3C[C@H]2O)cc(O)c(O)c1O)c1cc(O)c(O)c(O)c1 | 0.985
Cc1occc(=O)c1O | 0.929
CC(C)=CCC/C(C)=C/CC/C(C)=C/CC/C(C)=C/CC/C(C)=C/CC/C(C)=C/CC/C(C)=C/CC/C(C)=C/CC/C(C)=C/CO | 1.01
O=C1C=CC2=C3c4cc(O)c(O)cc4C[C@@]3(O)COC2=C1 | 0.967
CC(C)=CCC[C@](C)(O)C1CC=C(C)CC1 (stereo partly drawn) | 0.985
Nc1ncnc2c1ncn2C1C[C@H](O)[C@@H](CO)O1 (stereo partly drawn) | 1.01
O=[N+]([O-])c1ccc(O)c([N+](=O)[O-])c1 | 0.742
COc1c2c(cc3c1OCO3)CCN(C)C2 | 1.02
CC/C(=C(\c1ccccc1)c1ccc(OCCN(C)C)cc1)c1ccccc1 | 0.0759
C=C(CC)C(=O)c1ccc(OCC(=O)O)c(Cl)c1Cl | 1

Source: PubChem BioAssay AID1159580
